# experiment_summary: Mouse pharmacokinetics study, 50 mg/kg oral gavage, plasma LC-MS/MS
# Format: in vivo
# condition_summary: male C57BL/6 mice, non-fasted
# Method: Compounds were formulated in 5% DMSO, 5% Solutol, and […] phosphate buffered saline at a concentration of 5 mg/mL, and typically appeared as a fine homogenous suspension. Male C57BL/6 mice (n=3/compound) were administered a 50 mg/kg dose of each compound by oral gavage under a non-fasted condition. […] Compound concentrations were determined in extracted plasma using LC-MS/MS relative to an 8 point standard curve covering the 1 to 3000 ng/mL range. […]
Answer each item with its documented AUC.

Query: For the compound Cc1cc(COc2ccc(C(F)(F)F)cc2C)cc(C(=O)O)c1 , what AUC is on record?
Reply: 572 μMxhr

Query: // same read-out, input: O=C(O)c1cccc(COc2ccc(Cl)cc2Cl)c1
Reply: 376 μMxhr

Query: // same read-out, input: O=C(O)c1cccc(COc2ccc(Cl)c(Cl)c2Cl)c1
Reply: 219 μMxhr

Query: Same thing, different compound: O=C(O)c1cccc(COc2ccc(C(F)(F)F)cc2Cl)n1
Reply: 880 μMxhr

Query: # iterate: O=C(O)c1cccc(COc2ccc(Cl)cc2Cl)n1
Reply: 1206 μMxhr

Query: Note, next up: CCc1cc(COc2ccc(C(F)(F)F)cc2Cl)nc(C(=O)O)c1
Reply: 4700 μMxhr

Query: Please do the same for O=C(O)c1cccc(COc2ccc(Cl)cc2Cl)c1F as well.
Reply: 1503 μMxhr

Query: Please answer likewise for O=C(O)c1cccc(COc2ccc(C(F)(F)F)cc2Cl)c1
Reply: 615 μMxhr

Query: Next record, please: O=C(O)c1cccc(COc2ccc(C(F)(F)F)cc2Cl)c1F
Reply: 2150 μMxhr

Query: Ok, now O=C(O)c1cc(COc2ccc(C(F)(F)F)cc2Cl)ccc1F
Reply: 1069 μMxhr

Query: Do the same for O=C(O)c1cc(F)cc(COc2ccc(C(F)(F)F)cc2Cl)c1 please
Reply: 1037 μMxhr

Query: Cool, now Cc1cc(COc2ccc(C(F)(F)F)cc2Cl)cc(C(=O)O)c1
Reply: 974 μMxhr

Reference for the values: patent US11840521B2
